Each record here notes measured Median Tumor Volume.
- Test system: A2780 tumors
- Protocol: Human ovarian xenograft, tumor volume
- Condition details: Day 14

Compound	Experimental system	Quantity unit	Median Tumor Volume
COc1c(C)cc2c(c1O)[C@@H]1[C@@H]3[C@@H]4SC[C@]5(N[C@@H](CN)Cc6c5[nH]c5ccccc65)C(=O)OC[C@@H](c5c6c(c(C)c(OC(C)=O)c54)OCO6)N3[C@@H](O)[C@H](C2)N1C [Compound 12-R]	A2780 tumors	mm^3	2025.00
COc1c(C)cc2c(c1O)[C@@H]1[C@@H]3[C@@H]4SC[C@]5(N[C@H](CO)Cc6c5oc5ccccc65)C(=O)OC[C@@H](c5c6c(c(C)c(OC(C)=O)c54)OCO6)N3[C@@H](O)[C@H](C2)N1C [Compound 39-S]	A2780 tumors	mm^3	668.5
COc1ccc2[nH]c3c(c2c1)CCN[C@]31CS[C@@H]2c3c(OC(C)=O)c(C)c4c(c3[C@H](COC1=O)N1[C@@H]2[C@H]2c3c(cc(C)c(OC)c3O)C[C@@H]([C@@H]1O)N2C)OCO4 [PM01183, reference compound]	A2780 tumors	mm^3	2029.3
COc1c(C)cc2c(c1O)[C@@H]1[C@@H]3[C@@H]4SC[C@]5(N[C@@H](CN)Cc6c5oc5ccccc65)C(=O)OC[C@@H](c5c6c(c(C)c(OC(C)=O)c54)OCO6)N3[C@@H](O)[C@H](C2)N1C [Compound 47-R]	A2780 tumors	mm^3	1666.0
